# Target Or System: human V2 receptor (Homo sapiens, UniProt P30518)
# Construct: expressed in transfected cells; host or cells: CHO K1 (constitutively expressing modified aequorin; co-transfected with promiscuous G-alpha-16)
# Sequence (P30518 whole entry): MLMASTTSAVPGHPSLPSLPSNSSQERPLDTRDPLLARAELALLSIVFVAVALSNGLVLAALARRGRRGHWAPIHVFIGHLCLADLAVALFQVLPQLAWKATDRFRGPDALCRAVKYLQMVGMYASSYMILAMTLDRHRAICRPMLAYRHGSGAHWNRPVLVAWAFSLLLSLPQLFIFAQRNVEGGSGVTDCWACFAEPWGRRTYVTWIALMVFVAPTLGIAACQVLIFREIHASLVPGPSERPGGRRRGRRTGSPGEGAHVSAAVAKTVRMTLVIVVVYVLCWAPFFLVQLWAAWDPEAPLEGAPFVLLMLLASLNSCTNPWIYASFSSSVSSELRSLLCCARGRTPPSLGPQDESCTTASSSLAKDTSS
# Protocol Text: Cellular in vitro assay for determining the vasopressin receptor activity (aequorin luminescence)
# Type: cell-based
# Condition: CHO cell line transfected with the human V2 receptor (and Gα16); agonist [Arg8]-vasopressin; read-out: IC50 hV2
pIC50: −log10 of the molar value.
Metric Name: pIC50

// solved cases for pIC50 follow
Compound	Target Or System	pIC50
NC(=O)OCC(NC(=O)Cn1nc(-c2ccc(Cl)cc2)n(C[C@H](O)C(F)(F)F)c1=O)c1cccc(Cl)c1Cl (single isomer, unassigned)	human V2 receptor (Homo sapiens, UniProt P30518)	8.36
CCS(=O)(=O)NCC(NC(=O)Cn1nc(-c2ccc(Cl)cc2)n(C[C@H](O)C(F)(F)F)c1=O)c1cccc(Cl)c1Cl (single isomer, unassigned; diastereomer ii)	human V2 receptor (Homo sapiens, UniProt P30518)	8.82
NC(=O)OCC(NC(=O)Cn1nc(-c2ccc(Cl)cc2)n(Cc2ccccc2F)c1=O)c1ccccc1C(F)(F)F (single isomer, unassigned)	human V2 receptor (Homo sapiens, UniProt P30518)	7.61
COc1ccccc1C(CCOC(N)=O)NC(=O)Cn1nc(-c2ccc(Cl)cc2)n(C[C@H](O)C(F)(F)F)c1=O (some centres unmarked)	human V2 receptor (Homo sapiens, UniProt P30518)	8.00

A. COC(=O)NCC(NC(=O)Cn1nc(-c2ccc(Cl)cc2)n(CCC(F)(F)F)c1=O)c1cccc(Cl)c1Cl (single isomer, unassigned)
B. NC(=O)OCCC(NC(=O)Cn1nc(-c2ccc(Cl)cc2)n(C[C@H](O)C(F)(F)F)c1=O)c1cccc(Cl)c1Cl (single isomer, unassigned)
query: Could you check which of A and B has a smaller value for pIC50? Output the label that corresponds to your choice.
result: A

====

# Target Or System: human V1a receptor (Homo sapiens)
# Protocol Text: Cellular in vitro assay for determining the vasopressin receptor activity (aequorin luminescence)
# Condition: CHO cell line transfected with the human V1a receptor; agonist [Arg8]-vasopressin; read-out: IC50 hV1a
Metric Name: IC50 (nM)

Compound	IC50 [nM]
CS(=O)(=O)NCC(NC(=O)Cn1nc(-c2ccc(Cl)cc2)n(C[C@H](O)C(F)(F)F)c1=O)c1ccccc1Cl (single isomer, unassigned) [Example 126]	1.8
O=C(Cn1nc(-c2ccc(Cl)cc2)n(C[C@H](O)C(F)(F)F)c1=O)N[C@@H](CCO)c1ccccc1C(F)(F)F [Example 69]	1.6

A. O=C(Cn1nc(-c2ccc(Cl)cc2)n(C[C@H](O)C(F)(F)F)c1=O)NC(CN1CCNC1=O)c1cccc(C(F)(F)F)c1 (single isomer, unassigned) [Example 152]
B. CN(C(=O)Cn1nc(-c2ccc(Cl)cc2)n(C[C@H](O)C(F)(F)F)c1=O)C(CO)c1cccc(C(F)(F)F)c1 (stereo partly drawn) [Example 163]
C. COC(=O)NCC(NC(=O)Cn1nc(-c2ccc(Cl)cc2)n(CCC(F)(F)F)c1=O)c1cccc(Cl)c1Cl (single isomer, unassigned) [Example 115]
D. O=C(Cn1nc(-c2ccc(Cl)cc2)n(C[C@H](O)C(F)(F)F)c1=O)NC(CC(F)(F)F)c1ccccc1 (stereo partly drawn) [Example 90]
query: Order the entries by their reported IC50, beginning at the minimum. The reply should contain the labels ordered as requested.
result: A, C, D, B

====

# Target Or System: human V1a receptor (Homo sapiens, UniProt P37288)
# Sequence (P37288 whole entry): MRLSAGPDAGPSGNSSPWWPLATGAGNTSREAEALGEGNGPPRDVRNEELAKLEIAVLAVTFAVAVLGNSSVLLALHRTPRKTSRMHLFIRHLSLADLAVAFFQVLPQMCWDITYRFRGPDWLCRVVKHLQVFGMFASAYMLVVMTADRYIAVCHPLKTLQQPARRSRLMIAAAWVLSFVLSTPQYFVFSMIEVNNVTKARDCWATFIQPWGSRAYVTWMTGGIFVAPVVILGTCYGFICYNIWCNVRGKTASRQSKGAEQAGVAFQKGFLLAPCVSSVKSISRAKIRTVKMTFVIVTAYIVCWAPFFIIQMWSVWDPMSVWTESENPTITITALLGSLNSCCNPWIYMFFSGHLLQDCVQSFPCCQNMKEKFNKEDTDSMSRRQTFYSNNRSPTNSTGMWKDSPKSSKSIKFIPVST
# Protocol Text: Cellular in vitro assay for determining the vasopressin receptor activity (aequorin luminescence)
# Condition: CHO cell line transfected with the human V1a receptor; agonist [Arg8]-vasopressin; read-out: IC50 hV1a
Metric Name: IC50 (nM)

1. NCC(NC(=O)Cn1nc(-c2ccc(Cl)cc2)n(C[C@H](O)C(F)(F)F)c1=O)c1cccc(C(F)(F)F)c1 (mixture of isomers)
2. CS(=O)(=O)NCC(NC(=O)Cn1nc(-c2ccc(Cl)cc2)n(C[C@H](O)C(F)(F)F)c1=O)c1cccc(C(F)(F)F)c1 (single isomer, unassigned; diastereomer ii)
3. NC(=O)OCC(NC(=O)Cn1nc(-c2ccc(Cl)cc2)n(/C=C/C(F)(F)F)c1=O)c1cccc(C(F)(F)F)c1 (single isomer, unassigned)
4. CS(=O)(=O)NCC(NC(=O)Cn1nc(-c2ccc(Cl)cc2)n(C[C@H](O)C(F)(F)F)c1=O)c1ccccc1C(F)(F)F (single isomer, unassigned; diastereomer ii)
query: Highest IC50 first, then in falling order down to the smallest. The reply should contain the labels ordered as requested.
result: 3, 1, 2, 4

====

# Target Or System: human V2 receptor (Homo sapiens)
# Construct: co-transfected with promiscuous G-alpha-16)
# Protocol Text: Cellular in vitro assay for determining the vasopressin receptor activity (aequorin luminescence)
# Condition: CHO cell line transfected with the human V2 receptor (and Gα16); agonist [Arg8]-vasopressin; read-out: IC50 hV2
Metric Name: IC50 (nM)

Compound	Target Or System	Metric Name	Observed Value
O=C(Cn1nc(-c2ccc(Cl)cc2)n(C[C@H](O)C(F)(F)F)c1=O)NC(CO)c1ccccc1C(F)(F)F (single isomer, unassigned; diastereomer i) [Example 39]	human V2 receptor (Homo sapiens)	IC50	7.8

a. CS(=O)(=O)NCC(NC(=O)Cn1nc(-c2ccc(Cl)cc2)n(C[C@H](O)C(F)(F)F)c1=O)c1ccccc1C(F)(F)F (single isomer, unassigned; diastereomer ii) [Example 26]
b. O=C(Cn1nc(-c2ccc(Cl)cc2)n(C[C@H](O)C(F)(F)F)c1=O)N[C@@H](CCO)c1ccccc1C(F)(F)F [Example 69]
c. NC(=O)OCC(NC(=O)Cn1nc(-c2ccc(Cl)cc2)n(/C=C/C(F)(F)F)c1=O)c1cccc(C(F)(F)F)c1 (single isomer, unassigned) [Example 65]
d. N#Cc1cccc([C@H](CO)NC(=O)Cn2nc(-c3ccc(Cl)cc3)n(C[C@H](O)C(F)(F)F)c2=O)c1 [Example 75]
e. NCC(NC(=O)Cn1nc(-c2ccc(Cl)cc2)n(C[C@H](O)C(F)(F)F)c1=O)c1cccc(C(F)(F)F)c1 (mixture of isomers) [Example 10]
query: Order the entries by their reported IC50, beginning at the minimum. The reply should contain the labels ordered as requested.
result: a, e, b, c, d

====

# Target Or System: human V2 receptor (Homo sapiens, UniProt P30518)
# Construct: co-transfected with promiscuous G-alpha-16)
# Protocol Text: Cellular in vitro assay for determining the vasopressin receptor activity (aequorin luminescence)
# Condition: CHO cell line transfected with the human V2 receptor (and Gα16); agonist [Arg8]-vasopressin; read-out: IC50 hV2
Metric Name: IC50 (nM)

> print(dat)
                                   compound  metric.name  observed.value
1  O=C(Cn1nc(-c2ccc(Cl)cc2)n(C[C@H](O)C(F)(F)F)c1=O)NC(CN1CCNC1=O)c1cccc(C(F)(F)F)c1 (single isomer, unassigned)         IC50             7.1

I. CC(=O)NCC(NC(=O)Cn1nc(-c2ccc(Cl)cc2)n(C[C@H](O)C(F)(F)F)c1=O)c1cccc(C(F)(F)F)c1 (mixture of isomers)
II. CSCC(NC(=O)Cn1nc(-c2ccc(Cl)cc2)n(C[C@H](O)C(F)(F)F)c1=O)c1ccccc1C(F)(F)F (single isomer, unassigned)
query: # returns the entry with the larger IC50; inputs I and II Output the label that corresponds to your choice.
result: II
(II: 10 nM, I: 6.3 nM)

====

# Target Or System: human V2 receptor (Homo sapiens, UniProt P30518)
# Construct: co-transfected with promiscuous G-alpha-16)
# Protocol Text: Cellular in vitro assay for determining the vasopressin receptor activity (aequorin luminescence)
# Condition: CHO cell line transfected with the human V2 receptor (and Gα16); agonist [Arg8]-vasopressin; read-out: IC50 hV2
pIC50: −log10 of the molar value.
Metric Name: pIC50

// solved cases for pIC50 follow
Molecule	pIC50
COc1cccc(C(CCO)NC(=O)Cn2nc(-c3ccc(Cl)cc3)n(C3CC3)c2=O)c1 (racemic)	6.54
NC(=O)NCC(NC(=O)Cn1nc(-c2ccc(Cl)cc2)n(CCC(F)(F)F)c1=O)c1cccc(Cl)c1Cl (single isomer, unassigned)	8.85
CS(=O)(=O)NCC(NC(=O)Cn1nc(-c2ccc(Cl)cc2)n(C[C@H](O)C(F)(F)F)c1=O)c1cccc(C(F)(F)F)c1 (single isomer, unassigned; diastereomer ii)	8.89
NC(=O)OCC(NC(=O)Cn1nc(-c2ccc(Cl)cc2)n(CCC(F)(F)F)c1=O)c1ccccc1C(F)(F)F (single isomer, unassigned)	7.86
O=C(Cn1nc(-c2ccc(Cl)cc2)n(C[C@H](O)C(F)(F)F)c1=O)NC(c1ccccc1)C(O)C(F)(F)F (stereo partly drawn)	7.14

I. NC(=O)OCC(NC(=O)Cn1nc(-c2ccc(Cl)cc2)n(CCC(F)(F)F)c1=O)c1cccc(C(F)(F)F)c1 (single isomer, unassigned)
II. O=C(Cn1nc(-c2ccc(Cl)cc2)n(C[C@H](O)C(F)(F)F)c1=O)NC(C[N+](=O)[O-])c1cccc(C(F)(F)F)c1 (single isomer, unassigned; diastereomer i)
query: Could you check which of I and II has a smaller value for pIC50? Output the label that corresponds to your choice.
result: I
